These data points were gathered from patent US20190309023A1.

Biological target: T1, Human chemokine receptor CXCR4 (human, UniProt P61073 1-352)
T1 construct: whole, on cells; Used as membranes (0.5 ug membrane protein) of Chem-1 cells that express the receptor; also called C-X-C chemokine receptor type 4; fusin
T1 sequence (P61073 whole entry): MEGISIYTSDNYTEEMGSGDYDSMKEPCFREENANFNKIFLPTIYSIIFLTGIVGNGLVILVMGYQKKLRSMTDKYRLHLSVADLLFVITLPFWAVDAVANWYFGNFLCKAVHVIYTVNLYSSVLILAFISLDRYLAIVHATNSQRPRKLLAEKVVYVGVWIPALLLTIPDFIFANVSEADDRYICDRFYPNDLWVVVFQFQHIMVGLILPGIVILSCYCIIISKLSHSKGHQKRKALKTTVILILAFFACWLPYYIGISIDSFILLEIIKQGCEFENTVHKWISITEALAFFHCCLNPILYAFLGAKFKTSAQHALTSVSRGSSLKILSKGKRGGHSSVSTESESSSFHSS
Assay: competition with [125I]SDF-1α, human CXCR4 membranes (Chem-1 cells)
Bridge positions count the residues as written; N and C are the ends. Square brackets hold non-standard residues; d marks the D form. * marks the point of attachment. 2Nal = N[C@@H](Cc1ccc2ccccc2c1)C(=O)O; Palmitoyl = CCCCCCCCCCCCCCCC(=O)*; Lauroyl = CCCCCCCCCCCC(=O)*; hCys = N[C@@H](CCS)C(=O)O; PhAc = O=C(Cc1ccccc1)*; Bz = O=C(c1ccccc1)*; Mpa = O=C(O)CCS; iPr = CC(C)*
endpoint: IC50 (nM)
Record the value in nM, omitting the unit from your answer.

Prompt: Identify IC50 associated with the binder Bz-[hCys]YK(iPr)[dR][2Nal]GCK(iPr)G-NHEt (disulfide 1-7; also: acetate salt, Synthetic cyclic peptide, acetate salt; also called MLB-024) [Benzoyl-cyclo[hCys-Tyr-Lys(iPr)-(D-Arg)-2Nal-Gly-Cys]-Lys(iPr)-Gly-NH(Et)]
Response: 1.3

Prompt: Give IC50 for the following binder: Ac-[hCys]YK(iPr)[dR][2Nal]GCK(iPr)G-NHEt (disulfide 1-7; also: acetate salt, Synthetic cyclic peptide, acetate salt; also called MLB-026) [Ac-cyclo[hCys-Tyr-Lys(iPr)-(D-Arg)-2Nal-Gly-Cys]-Lys(iPr)-Gly-NH(Et)]
Response: 0.89

Prompt: Return IC50 (reported value) for this binder: Ac-[hCys]YK(iPr)[dR][2Nal]GCK(iPr)G-NH2 (disulfide 1-7; also: acetate salt, Synthetic cyclic peptide, acetate salt; also called MLB-010) [Ac-cyclo[hCys-Tyr-Lys(iPr)-(D-Arg)-2Nal-Gly-Cys]-Lys(iPr)-Gly-NH2]
Response: 0.56

Prompt: Look up and state reported IC50 for Ac-CYK(iPr)[dR][2Nal]GCK(iPr)G-NH2 (linker 1-7 via 1,2‑bisbromomethyl benzene; also: acetate salt, Acetate salt) [MLB-032]
Response: 0.4

Prompt: Using known records, supply IC50 for Bz-CYK(iPr)[dR][2Nal]GCK(iPr)G-NH2 (linker 1-7 via 1,2‑bisbromomethyl benzene; also: acetate salt, Acetate salt) [MLB-030]
Response: 1.3

Prompt: Input [Mpa]YK(iPr)[dR][2Nal]GCK(iPr)K(Lauroyl)-NHEt (disulfide 1-7; also: acetate salt, Synthetic cyclic peptide, acetate salt; also called MLB-028) [Cyclo[Mpa-Tyr-Lys(iPr)-(D-Arg)-2Nal-Gly-Cys]-Lys(iPr)-Lys(lauroyl)-NH(Et)] , output reported IC50.
Response: 8.2

Prompt: // fetch IC50 given entry Bz-[hCys]YK(iPr)[dR][2Nal]GCK(iPr)G-NH2 (disulfide 1-7; also: acetate salt, Synthetic cyclic peptide, acetate salt; also called MLB-021) [Benzoyl-cyclo[hCys-Tyr-Lys(iPr)-(D-Arg)-2Nal-Gly-Cys]-Lys(iPr)-Gly-NH2]
Response: 0.42

Prompt: Tell me IC50 reported for [Mpa]YK(iPr)[dR][2Nal]GCRG[dF]G-NH2 (disulfide 1-7; also: acetate salt, Synthetic cyclic peptide, acetate salt; also called MLB-002) [Cyclo[Mpa-Tyr-Lys(iPr)-(D-Arg)-2Nal-Gly-Cys]-Arg-Gly-(D-Phe)-Gly-NH2]
Response: 0.92

Prompt: Identify IC50 associated with the binder [Mpa]YK(iPr)[dR][2Nal]GCK(iPr)K(Palmitoyl)-NHEt (disulfide 1-7; also: acetate salt, Synthetic cyclic peptide, acetate salt; also called MLB-029) [Cyclo[Mpa-Tyr-Lys(iPr)-(D-Arg)-2Nal-Gly-Cys]-Lys(iPr)-Lys(palmitoyl)-NH(Et)]
Response: 11

Prompt: Given the binder [Mpa]YK(iPr)[dR][2Nal]GC[dR]G[dF]G-NH2 (disulfide 1-7; also: acetate salt, Synthetic cyclic peptide, acetate salt; also called MLB-004) [Cyclo[Mpa-Tyr-Lys(iPr)-(D-Arg)-2Nal-Gly-Cys]-(D-Arg)-Gly-(D-Phe)-Gly-NH2] , write its reported IC50.
Response: 0.7

Prompt: Query IC50 for [Mpa]YK(iPr)[dR][2Nal]GCK(iPr)G-NHEt (disulfide 1-7; also: acetate salt, Synthetic cyclic peptide, acetate salt; also called MLB-014) [Cyclo[Mpa-Tyr-Lys(iPr)-(D-Arg)-2Nal-Gly-Cys]-Lys(iPr)-Gly-NH(Et)]
Response: 0.64

Prompt: State its IC50 for this binder: Bz-CYK(iPr)[dR][2Nal]G[hCys]K(iPr)G-NH2 (disulfide 1-7; also: acetate salt, Synthetic cyclic peptide, acetate salt; also called MLB-022) [Benzoyl-cyclo[Cys-Tyr-Lys(iPr)-(D-Arg)-2Nal-Gly-hCys]-Lys(iPr)-Gly-NH2]
Response: 0.71

Prompt: Using the record for Ac-CYK(iPr)[dR][2Nal]GCK(iPr)G-NH2 (linker 1-7 via 1,3‑bisbromomethyl benzene; also: acetate salt, Acetate salt) [MLB-033] , state its measured IC50.
Response: 3.3

Prompt: Quick one: give measured IC50 for Bz-CYK(iPr)[dR][2Nal]GCK(iPr)G-NH2 (disulfide 1-7; also: acetate salt, Synthetic cyclic peptide, acetate salt; also called MLB-023) [Benzoyl-cyclo[Cys-Tyr-Lys(iPr)-(D-Arg)-2Nal-Gly-Cys]-Lys(iPr)-Gly-NH2]
Response: 3.4

Prompt: Give reported IC50 value for [Mpa]YK(iPr)[dR][2Nal]GCK(iPr)G[2Nal]G-NH2 (disulfide 1-7; also: acetate salt, Synthetic cyclic peptide, acetate salt; also called MLB-008) [Cyclo[Mpa-Tyr-Lys(iPr)-(D-Arg)-2Nal-Gly-Cys]-Lys(iPr)-Gly-2Nal-Gly-NH2]
Response: 0.95

Prompt: // Input: [Mpa]YK(iPr)[dR][2Nal]GCK(iPr)K(Ac)-NHEt (disulfide 1-7; also: acetate salt, Synthetic cyclic peptide, acetate salt; also called MLB-027) [Cyclo[Mpa-Tyr-Lys(iPr)-(D-Arg)-2Nal-Gly-Cys]-Lys(iPr)-Lys(Ac)-NH(Et)] . Output its IC50 only.
Response: 0.48

Prompt: Supply reported IC50 belonging to this binder: [Mpa]YR[dR][2Nal]GCRG[dF]G-NH2 (disulfide 1-7; also: acetate salt, Synthetic cyclic peptide, acetate salt; also called MLB-001) [Cyclo[Mpa-Tyr-Arg-(D-Arg)-2Nal-Gly-Cys]-Arg-Gly-(D-Phe)-Gly-NH2]
Response: 24

Prompt: Read off the recorded IC50 for PhAc-[hCys]YK(iPr)[dR][2Nal]GCK(iPr)G-NH2 (disulfide 1-7; also: acetate salt, Synthetic cyclic peptide, acetate salt; also called MLB-025) [Phenylacetyl-cyclo[hCys-Tyr-Lys(iPr)-(D-Arg)-2Nal-Gly-Cys]-Lys(iPr)-Gly-NH2]
Response: 0.84
